Please find below Ki data on Retinoic acid receptor RXR-alpha (Homo sapiens, UniProt P19793) compiled from the literature.
Biological target: Retinoic acid receptor RXR-alpha (Homo sapiens, UniProt P19793)
Sequence (P19793 whole entry): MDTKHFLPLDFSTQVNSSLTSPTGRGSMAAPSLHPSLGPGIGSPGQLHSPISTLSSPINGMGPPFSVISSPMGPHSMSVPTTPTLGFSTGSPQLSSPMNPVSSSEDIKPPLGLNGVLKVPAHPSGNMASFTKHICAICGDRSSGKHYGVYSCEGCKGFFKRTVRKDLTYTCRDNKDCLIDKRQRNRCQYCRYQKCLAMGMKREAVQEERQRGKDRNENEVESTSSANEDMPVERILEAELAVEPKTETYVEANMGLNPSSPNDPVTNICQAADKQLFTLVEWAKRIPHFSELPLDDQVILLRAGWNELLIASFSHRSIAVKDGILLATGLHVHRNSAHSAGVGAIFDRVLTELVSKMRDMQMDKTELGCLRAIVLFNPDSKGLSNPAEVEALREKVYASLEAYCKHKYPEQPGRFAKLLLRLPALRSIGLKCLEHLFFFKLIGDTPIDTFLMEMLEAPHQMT

CC1(C)CCC(C)(C)c2cc(C3CCCc4oc(C(=O)O)cc43)ccc21 (centres undefined); > 3000 nM
C/C(=C/C=C/C(C)=C/C(=O)O)c1cc(-c2cc(F)cc(F)c2)cc(C(C)C)c1OCC(F)F; 2.6 nM

Field: Ki. Fill in for each record below.
1. C=C(c1ccc(C(=O)O)cc1)c1ccc2c(c1)C(C)(C)CCC2(C)C
2. Cc1cc2c(cc1C(NCc1cccc(F)c1)c1ccc(C(=O)O)cc1)C(C)(C)CCC2(C)C (centres undefined)
3. COc1c(C(=O)c2ccc(C(=O)O)cc2)cc2c(c1C)N(C)CCC2(C)C
4. C/C(=C\C(=O)O)c1cc2cccc(-c3cc(C(C)C)cc(C(C)C)c3OCC(F)(F)F)c2o1
5. CCCCOc1c(\C(C)=C/C=C/C(C)=C/C(=O)O)cc(C(F)(F)C(F)(F)F)cc1C(C)C

(A)
1: 150 nM; 2: 6500 nM; 3: > 30000 nM; 4: 198 nM; 5: 21.4 nM

// each compound listed below needs its Ki
1. C/C(=C/C=C/C(C)=C/C(=O)O)c1cc(C(C)C)cc(-c2ccccc2)c1OCC(F)F
2. C/C(=C/C=C/C(C)=C/C(=O)O)c1cc(-c2ccc(F)cc2)cc(C(C)C)c1OCC(F)F

(A)
1: 6.1 nM; 2: 0.8 nM

----------
Here we gather Ki data for Retinoic acid receptor RXR-alpha (Homo sapiens, UniProt P19793) reported by several publications.
Criterion: Ki strictly less than 300 nM. Met: rule met. Not met: rule not met.

CCCOc1cc2c(cc1C1CCCc3oc(/C=C/C(=O)O)cc31)C(C)(C)CCC2(C)C (centres undefined); rule met
CCN(c1ccc(C(=O)O)cn1)c1cc(OCC(C)C)c(C(C)C)cc1NC(=O)c1ccccc1; rule not met
CCOc1c(\C(C)=C/C=C/C(C)=C/C(=O)O)cc(C(C)C)cc1C(C)C; rule met
CC(/C=C/C1(c2cc3c(cc2C)C(C)(C)CCC3(C)C)CCCC1)=C\C(=O)O; rule not met
Cc1cc2c(cc1C(OCc1ccc(SC(F)(F)F)cc1)c1ccc(C(=O)O)cc1)C(C)(C)CCC2(C)C (centres undefined); rule not met

(Q) Please determine if "CCOc1c(-c2cccc3cc(/C(C)=C/C(=O)O)sc23)cc(C(C)C)cc1C(C)C" is below 300 nM in terms of Ki.
(A) rule met

(Q) Record "C/C(=C/C=C/C(C)=C/C(=O)O)c1cc(C(C)C)cc(C(C)C)c1OCC(F)F" : is its Ki strictly below 300 nM?
(A) rule met

(Q) API: query returns whether the compound falls strictly under 300 nM in Ki. Query: CN1Cc2oc(/C=C/C(=O)O)cc2C(c2ccc3c(c2)C(C)(C)CCC3(C)C)C1 (centres undefined)
(A) rule met

(Q) Consider the compound "CC(/C=C/C1=C(c2cc3c(cc2C)C(C)(C)CCC3(C)C)CCC1)=C\C(=O)O" . Is its Ki strictly less than 300 nM?
(A) rule met

----------
Below are Ki values for Retinoic acid receptor RXR-alpha (Homo sapiens, UniProt P19793) collected from several publications.
Biological target: Retinoic acid receptor RXR-alpha (Homo sapiens, UniProt P19793)
Sequence (P19793 whole entry): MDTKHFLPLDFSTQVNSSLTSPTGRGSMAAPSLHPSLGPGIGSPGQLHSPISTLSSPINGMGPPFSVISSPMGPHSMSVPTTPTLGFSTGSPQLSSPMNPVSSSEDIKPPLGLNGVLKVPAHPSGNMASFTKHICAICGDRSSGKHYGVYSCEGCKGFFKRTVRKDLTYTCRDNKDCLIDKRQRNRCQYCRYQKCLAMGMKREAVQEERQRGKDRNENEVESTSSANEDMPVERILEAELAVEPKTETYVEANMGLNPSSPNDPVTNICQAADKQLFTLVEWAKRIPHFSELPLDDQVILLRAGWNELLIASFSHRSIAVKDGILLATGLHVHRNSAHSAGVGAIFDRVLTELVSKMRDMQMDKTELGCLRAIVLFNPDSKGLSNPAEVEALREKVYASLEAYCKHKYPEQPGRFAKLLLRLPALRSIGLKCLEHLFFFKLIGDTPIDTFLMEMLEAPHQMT
Answers are plain numbers, in nM.

Use the examples below as a reference point.
CCCOc1c(-c2cccc3cc(/C(C)=C/C(=O)O)oc23)cc(C(C)C)cc1C(C)C; 44
O=C1NC(=O)/C(=C/c2ccc(-c3cccc(Br)c3)o2)S1; 1500
C/C(=C\C(=O)O)c1cc2c(-c3cc(C(C)(C)C)cc(C(C)(C)C)c3OCCCF)cccc2s1; 3

Would you mind listing Ki for each of the following compounds?
1. CC(/C=C/[C@@H]1CCC[C@@H]1c1ccc2c(c1)C(C)(C)CCC2(C)C)=C\C(=O)O
2. C/C(=C/C=C/C(C)=C/C(=O)O)c1cc(C(C)C)cc(C(C)C)c1OCC(F)(F)F
3. CCCOc1c(\C(C)=C/C=C/C(C)=C/C(=O)O)cc(C(F)(F)C(F)(F)F)cc1C(C)C
4. CCOc1cc2c(cc1/C(=N/Nc1cc(F)ccc1F)c1ccc(C(=O)O)cc1)C(C)(C)CCC2(C)C

(A)
1. 15
2. 3
3. 25.6
4. 3000

----------
Molecular target: Retinoic acid receptor RXR-alpha (Homo sapiens)
Sequence (P19793 whole entry): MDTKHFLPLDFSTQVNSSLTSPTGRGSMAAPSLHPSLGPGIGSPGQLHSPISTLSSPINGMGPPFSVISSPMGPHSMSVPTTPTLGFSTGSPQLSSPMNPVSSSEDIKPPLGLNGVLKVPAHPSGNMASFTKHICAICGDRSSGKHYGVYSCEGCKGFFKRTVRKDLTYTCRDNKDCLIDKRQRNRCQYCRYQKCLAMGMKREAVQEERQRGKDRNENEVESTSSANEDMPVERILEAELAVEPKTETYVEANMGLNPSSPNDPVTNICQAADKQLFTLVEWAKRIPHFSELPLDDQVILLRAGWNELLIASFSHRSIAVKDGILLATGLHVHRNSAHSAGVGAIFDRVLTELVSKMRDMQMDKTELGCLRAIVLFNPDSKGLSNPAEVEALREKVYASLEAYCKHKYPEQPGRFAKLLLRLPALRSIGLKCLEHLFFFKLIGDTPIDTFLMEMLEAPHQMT
Ki values for Retinoic acid receptor RXR-alpha (Homo sapiens), compiled from several publications.

Worked examples follow.
CC(/C=C/C=C(\C)c1cc(C(C)(C)C)cc(C(C)(C)C)c1)=C\C(=O)O (stereo in doubt; form 2); 223 nM
CCCOc1c(\C(C)=C/C=C/C(C)=C/C(=O)O)cc(C(C)(C)C)cc1C(C)(C)C; 14 nM
COc1c(\C(C)=C/C=C/C(C)=C/C(=O)O)cc(C(C)(C)C)cc1C(C)(C)C; 1 nM
CC(/C=C/[C@H]1CCC[C@@H]1c1ccc2c(c1)C(C)(C)CCC2(C)C)=C\C(=O)O; 3 nM
CCC(C)(C)c1cc(\C(C)=C/C=C/C(C)=C/C(=O)O)c(OC)c(C(C)(C)CC)c1; 2 nM
CCCCCCCOc1c(-c2cccc3sc(/C(C)=C/C(=O)O)cc23)cc(C(C)(C)C)cc1C(C)(C)C; 5 nM
CC(/C=C/[C@@]1(C)CCCC1c1ccc2c(c1)C(C)(C)CCC2(C)C)=C\C(=O)O (single isomer, unassigned); 4 nM
CCOc1cc2c(cc1\C(C)=C/C=C/C(C)=C/C(=O)O)C(C)(C)CCC2(C)C; 4 nM
Cc1cc2c(cc1C1CCCc3oc(/C=C/C(=O)O)cc31)C(C)(C)CCC2(C)C (stereo not drawn); 40 nM
O=C1NC(=O)/C(=C/c2ccc(-c3cccc(C(F)(F)F)c3)o2)S1; 7400 nM

Look up Ki for the entries below, preserving their order.
1. CC(/C=C/[C@]1(C)CCCC1c1ccc2c(c1)C(C)(C)CCC2(C)C)=C\C(=O)O (single isomer, unassigned)
2. CC1(C)CCC(C)(C)c2cc(/C(=N\Nc3ccccc3)c3ccc(C(=O)O)cc3)ccc21
3. C/C(=C\C(=O)O)c1cc2cccc(-c3cc(C(C)C)cc(C(C)C)c3OCC(F)F)c2o1
4. CC1(C)CCC(C)(C)c2c1cc(C(=O)c1ccc(C(=O)O)cc1)c(OCC(F)F)c2[N+](=O)[O-]
5. CCOc1c(\C(=C/C=C/C(C)=C/C(=O)O)C(F)(F)F)cc(C(C)(C)C)cc1C(C)(C)C
6. C/C(=C\C(=O)O)c1cc2c(-c3cc(C(C)(C)C)cc(C(C)(C)C)c3OCC(F)(F)F)cccc2s1

(A)
1. 4 nM
2. > 10000 nM
3. 161 nM
4. > 10000 nM
5. 50.3 nM
6. 3 nM

Consider the following items and state reported Ki for each.
1. CC(/C=C/C(F)=C(/C)c1cc(C(C)(C)C)cc(C(C)(C)C)c1OCC(F)F)=C\C(=O)O
2. Cc1c(C(=O)c2ccc(C(=O)O)cc2)cc2c(c1[N+](=O)[O-])OCCC2(C)C

(A)
1. 7.8 nM
2. > 30000 nM
